# TGT: Adrenergic receptor alpha-2 (Rattus norvegicus) (UniProt P22086+P19328+P22909)
# EXPERIMENT: Binding affinity towards alpha-2 adrenergic receptor at 1.0 uM concentration
# Type: protein assay
PROPERTY LABEL: inhibition
Give me the value, and tack the unit on after it.

The examples below pair each entry with its known result.
{"columns": ["SMILES STRUCTURE", "MEASURED VALUE"],
 "data": [
  ["Br.Oc1cc2c(cc1O)[C@H]1CCCN1C[C@H]2c1ccccc1", "21%"],
  ["Br.Clc1ccc([C@@H]2CN3CCC[C@@H]3c3ccccc32)cc1", "35%"]
]}

## Input I would be grateful if you could share the reported inhibition for Br.COc1ccc([C@@H]2CN3CCC[C@@H]3c3ccccc32)cc1OC .
## Output 15%
